test_protocol: Toxicokinetics after escalating intravenous doses of CKLP1 in beagles
Assay type: in vivo, beagle dog
reported_conditions: male, beagle, dog, in vivo, iv, 0.05 mg/kg
quantity_name: AUC(0-t)

I have this compound here, CC1(C)Oc2ccc(C#N)cc2[C@@H](N2CCCC2=O)[C@@H]1OP(=O)(O)O [CKLP1] , and I need its recorded AUC(0-t).
1120 ng·h/mL

====

test_protocol: Concentration of CKLP1 and levcromakalim in ocular and systemic tissues of hound dogs
Format: in vivo, hound dog
reported_conditions: hound, dog, aqueous humor; 23 hours after last dose; topical 10 mM CKLP1 12-13 days; two animals; read-out: concentration in aqueous humor
quantity_name: concentration at 23 h (ng/mL)
Express the result in ng/mL but write the number alone.

I have this molecule here, CC1(C)Oc2ccc(C#N)cc2[C@@H](N2CCCC2=O)[C@@H]1O [Levcromakalim, levcromakalim, reference compound] , and I need its recorded concentration at 23 h.
1.1

Reference source for all entries: patent US20220387457A1
